We begin with a simple list: items and their reported IC50.
biological target: 11-beta-hydroxysteroid dehydrogenase 1 (Mus musculus, UniProt P50172); experiment: Inhibition of mouse 11beta-HSD1 expressed in HEK293 cells assessed as [3H]cortisol by scintillation proximity assay; format: cell-based

compoundString: C=C(C)[C@H](O)CC[C@@H](CO)[C@H]1CC[C@@]2(C)[C@@H]3CC[C@@H](C(=C)C)[C@@]4(CCC(=O)O)C[C@@]34CC[C@]12C
measurementTarget: 11-beta-hydroxysteroid dehydrogenase 1 (Mus musculus, UniProt P50172)
IC50: 990 nM

compoundString: C=C(C)[C@@H]1CC[C@@H]2[C@]3(CC[C@]4(C)[C@@H]([C@@H](C/C=C/C(C)(C)O)COC(C)=O)CC[C@@]24C)C[C@]13CCC(=O)O
measurementTarget: 11-beta-hydroxysteroid dehydrogenase 1 (Mus musculus, UniProt P50172)
IC50: 740 nM

compoundString: C=C(C)[C@@H]1CC[C@@H]2[C@]3(CC[C@]4(C)[C@@H]([C@H]5CC[C@H](C(C)(C)O)OC5)CC[C@@]24C)C[C@]13CCC(=O)O
measurementTarget: 11-beta-hydroxysteroid dehydrogenase 1 (Mus musculus, UniProt P50172)
IC50: 240 nM

====

target: 11-beta-hydroxysteroid dehydrogenase 1 (Homo sapiens); experiment: Inhibition of human 11beta-HSD1 expressed in HEK293 cells assessed as [3H]cortisol at 10 uM by scintillation proximity assay; format: cell-based
Sequence (P28845 whole entry, looked up): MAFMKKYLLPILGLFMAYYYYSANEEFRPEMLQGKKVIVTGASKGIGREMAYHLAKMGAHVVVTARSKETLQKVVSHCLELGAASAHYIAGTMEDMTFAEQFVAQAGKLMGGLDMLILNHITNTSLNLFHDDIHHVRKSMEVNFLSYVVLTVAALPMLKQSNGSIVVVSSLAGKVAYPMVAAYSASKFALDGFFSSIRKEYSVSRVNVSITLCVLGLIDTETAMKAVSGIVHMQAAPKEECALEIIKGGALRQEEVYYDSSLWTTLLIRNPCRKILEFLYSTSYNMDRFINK
Some compounds, each annotated with its measured inhibition.

compoundString: C=C(C)[C@@H]1CC[C@@H]2[C@]3(CC[C@]4(C)[C@@H]([C@H]5CC[C@H](C(C)(C)O)OC5)CC[C@@]24C)C[C@]13CCC(=O)O
measurementTarget: 11-beta-hydroxysteroid dehydrogenase 1 (Homo sapiens)
inhibition: > 60%
//
compoundString: C=C(C)[C@@H]1CC[C@@H]2[C@]3(CC[C@]4(C)[C@@H]([C@@H](CCC(=O)O)COC(C)=O)CC[C@@]24C)C[C@]13CCC(=O)O
measurementTarget: 11-beta-hydroxysteroid dehydrogenase 1 (Homo sapiens)
inhibition: > 60%
//
compoundString: C=C(C)[C@@H]1CC[C@@H]2[C@]3(CC[C@]4(C)[C@@H]([C@@H](C/C=C/C(C)(C)O)COC(C)=O)CC[C@@]24C)C[C@]13CCC(=O)O
measurementTarget: 11-beta-hydroxysteroid dehydrogenase 1 (Homo sapiens)
inhibition: > 60%
//
compoundString: C=C(C)[C@H](O)CC[C@@H](CO)[C@H]1CC[C@@]2(C)[C@@H]3CC[C@@H](C(=C)C)[C@@]4(CCC(=O)O)C[C@@]34CC[C@]12C
measurementTarget: 11-beta-hydroxysteroid dehydrogenase 1 (Homo sapiens)
inhibition: > 60%

====

system: Staphylococcus epidermidis; experiment: Antibacterial activity against Staphylococcus epidermidis ATCC 12228 after 18 hrs by microdilution method; format: functional; conditions: ATCC 12228, 18 h

molecule: CC1COc2c(N3CCN(C)CC3)c(F)cc3c(=O)c(C(=O)O)cn1c23 (stereo not drawn)
measurementTarget: Staphylococcus epidermidis
readoutQualifier: =
MIC (µg/mL): 0.2
//
molecule: C=C(C)[C@@H](O)CC[C@@H](COC(C)=O)[C@H]1CC[C@@]2(C)[C@@H]3CC[C@@H](C(=C)C)[C@@]4(CCC(=O)O)C[C@@]34CC[C@]12C
measurementTarget: Staphylococcus epidermidis
readoutQualifier: =
MIC (µg/mL): 25
//
molecule: C=C(C)[C@@H]1CC[C@@H]2[C@]3(CC[C@]4(C)[C@@H]([C@H]5CC[C@@H](C(C)(C)O)OC5)CC[C@@]24C)C[C@]13CCC(=O)O
measurementTarget: Staphylococcus epidermidis
readoutQualifier: >
MIC (µg/mL): 50

====

test system: Bacillus subtilis; test: Antibacterial activity against Bacillus subtilis ATCC 6633 after 18 hrs by microdilution method; type: functional; settings: ATCC 6633, 18 h
Each record is given True if its reported MIC is strictly below 6 mg/L. Records at or above 6 mg/L are given False.

compound: C=C(C)C(=O)CC[C@@H](COC(C)=O)[C@H]1CC[C@@]2(C)[C@@H]3CC[C@@H](C(=C)C)[C@@]4(CCC(=O)O)C[C@@]34CC[C@]12C
measurementTarget: Bacillus subtilis
className: False
--
compound: C=C(C)[C@@H]1CC[C@@H]2[C@]3(CC[C@]4(C)[C@@H]([C@H](C)CC[C@H](O)C(C)(C)O)CC[C@@]24C)C[C@]13CCC(=O)O
measurementTarget: Bacillus subtilis
className: False
--
compound: C=C(C)[C@@H]1CC[C@@H]2[C@]3(CC[C@]4(C)[C@@H]([C@@H](C/C=C/C(C)(C)O)COC(C)=O)CC[C@@]24C)C[C@]13CCC(=O)O
measurementTarget: Bacillus subtilis
className: False
--
compound: C=C(C)[C@@H]1CC[C@@H]2[C@]3(CC[C@]4(C)[C@@H]([C@H](C)C/C=C/C(C)(C)O)CC[C@@]24C)C[C@]13CCC(=O)O
measurementTarget: Bacillus subtilis
className: True
--
compound: C=C(C)[C@H](O)CC[C@@H](CO)[C@H]1CC[C@@]2(C)[C@@H]3CC[C@@H](C(=C)C)[C@@]4(CCC(=O)O)C[C@@]34CC[C@]12C
measurementTarget: Bacillus subtilis
className: False
--
compound: C=C(C)[C@@H]1CC[C@@H]2[C@]3(CC[C@]4(C)[C@@H]([C@H]5CC[C@@H](C(C)(C)O)OC5)CC[C@@]24C)C[C@]13CCC(=O)O
measurementTarget: Bacillus subtilis
className: False
--
compound: C=C(C)[C@@H]1CC[C@@H]2[C@]3(CC[C@]4(C)[C@@H]([C@H]5CC[C@H](C(C)(C)O)OC5)CC[C@@]24C)C[C@]13CCC(=O)O
measurementTarget: Bacillus subtilis
className: False
--
compound: C=C(C)[C@H](O)CC[C@@H](COC(C)=O)[C@H]1CC[C@@]2(C)[C@@H]3CC[C@@H](C(=C)C)[C@@]4(CCC(=O)O)C[C@@]34CC[C@]12C
measurementTarget: Bacillus subtilis
className: False
--
compound: C=C(C)[C@@H](O)CC[C@@H](COC(C)=O)[C@H]1CC[C@@]2(C)[C@@H]3CC[C@@H](C(=C)C)[C@@]4(CCC(=O)O)C[C@@]34CC[C@]12C
measurementTarget: Bacillus subtilis
className: False
--
compound: CC1COc2c(N3CCN(C)CC3)c(F)cc3c(=O)c(C(=O)O)cn1c23 (stereo not given)
measurementTarget: Bacillus subtilis
className: True

====

biological target: 11-beta-hydroxysteroid dehydrogenase 1 (Mus musculus) (UniProt P50172); experiment: Inhibition of mouse 11beta-HSD1 expressed in HEK293 cells assessed as [3H]cortisol at 10 uM by scintillation proximity assay; assay type: cell-based
Sequence (P50172 whole entry, looked up): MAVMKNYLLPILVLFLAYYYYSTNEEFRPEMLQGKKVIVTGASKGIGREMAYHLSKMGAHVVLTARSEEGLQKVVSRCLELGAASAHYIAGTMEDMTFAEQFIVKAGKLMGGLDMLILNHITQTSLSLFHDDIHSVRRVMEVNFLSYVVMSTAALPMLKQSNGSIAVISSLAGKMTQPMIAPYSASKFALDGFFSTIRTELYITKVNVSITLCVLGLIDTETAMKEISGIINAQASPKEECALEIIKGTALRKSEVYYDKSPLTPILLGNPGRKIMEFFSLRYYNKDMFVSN
measurementName: inhibition

compoundString: C=C(C)[C@@H]1CC[C@@H]2[C@]3(CC[C@]4(C)[C@@H]([C@@H](CCC(=O)O)COC(C)=O)CC[C@@]24C)C[C@]13CCC(=O)O
resultValue: > 60%
//
compoundString: C=C(C)[C@@H]1CC[C@@H]2[C@]3(CC[C@]4(C)[C@@H]([C@H]5CC[C@H](C(C)(C)O)OC5)CC[C@@]24C)C[C@]13CCC(=O)O
resultValue: > 60%
//
compoundString: C=C(C)[C@@H]1CC[C@@H]2[C@]3(CC[C@]4(C)[C@@H]([C@@H](C/C=C/C(C)(C)O)COC(C)=O)CC[C@@]24C)C[C@]13CCC(=O)O
resultValue: > 60%
//
compoundString: C=C(C)[C@H](O)CC[C@@H](CO)[C@H]1CC[C@@]2(C)[C@@H]3CC[C@@H](C(=C)C)[C@@]4(CCC(=O)O)C[C@@]34CC[C@]12C
resultValue: > 60%

====

The compounds listed here are annotated with their pIC50.
target: 11-beta-hydroxysteroid dehydrogenase 1 (Homo sapiens, UniProt P28845); experiment: Inhibition of human 11beta-HSD1 expressed in HEK293 cells assessed as [3H]cortisol by scintillation proximity assay
Sequence (P28845 whole entry): as the sequence (P28845 whole entry, looked up) above
pIC50: −log10 of the molar value.
measurementName: pIC50

compoundString: C=C(C)[C@@H]1CC[C@@H]2[C@]3(CC[C@]4(C)[C@@H]([C@@H](C/C=C/C(C)(C)O)COC(C)=O)CC[C@@]24C)C[C@]13CCC(=O)O
resultValue: 5.64

compoundString: C=C(C)[C@H](O)CC[C@@H](CO)[C@H]1CC[C@@]2(C)[C@@H]3CC[C@@H](C(=C)C)[C@@]4(CCC(=O)O)C[C@@]34CC[C@]12C
resultValue: 5.85

compoundString: C=C(C)[C@@H]1CC[C@@H]2[C@]3(CC[C@]4(C)[C@@H]([C@@H](CCC(=O)O)COC(C)=O)CC[C@@]24C)C[C@]13CCC(=O)O
resultValue: 5.72

compoundString: C=C(C)[C@@H]1CC[C@@H]2[C@]3(CC[C@]4(C)[C@@H]([C@H]5CC[C@H](C(C)(C)O)OC5)CC[C@@]24C)C[C@]13CCC(=O)O
resultValue: 5.72
